# ASSAY METHOD TEXT: Plasma AMG 232 pharmacokinetics (HPLC-MS, non-compartmental analysis)
# Type: in vivo, human
# REPORTED CONDITIONS: human, plasma, oral, 240 mg, Day 7, 240-mg dose expansion, GBM (n = 6–9); read-out: Cmax, mean (SD)

COMPOUND: CC(C)[C@@H](CS(=O)(=O)C(C)C)N1C(=O)[C@@](C)(CC(=O)O)C[C@H](c2cccc(Cl)c2)[C@H]1c1ccc(Cl)cc1 [AMG 232]
Cmax, ng/mL: 988

###

# ASSAY METHOD TEXT: Plasma AMG 232 pharmacokinetics (HPLC-MS, non-compartmental analysis)
# Format: in vivo, human
# REPORTED CONDITIONS: human, plasma, oral, 360 mg, Day 7, dose escalation, 360 mg (n = 3–4); read-out: AUC24h, mean (SD)
READOUT: AUC(0-t) (ng·h/mL)

COMPOUND: CC(C)[C@@H](CS(=O)(=O)C(C)C)N1C(=O)[C@@](C)(CC(=O)O)C[C@H](c2cccc(Cl)c2)[C@H]1c1ccc(Cl)cc1 [AMG 232]
READOUT: AUC(0-t)
REPORTED RESULT: 15500

Where do the numbers come from? From paper PMC7211202.
